# Test system: TDF;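 further: TDF is a line of transformed human dermal fibroblasts of mesenchymal origin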
# protocol_description: H1.0 immunofluorescence intensity relative to DMSO (% of DMSO); higher = stronger H1.0 induction, active = 120 or more
# measurement_setup: concentration: 10 µM; 24 h
observed_property: H1.0 immunofluorescence intensity
A bare number is all that is needed in reply.

Examples with their reported H1.0 immunofluorescence intensity follow.
>>> assay_result("Cc1[nH]c2ccccc2c1C1=C(NCCc2ccc(F)cc2)C(=O)N(C)C1=O")
137
>>> assay_result("Cl.O=C(NCCCCN1CCN(c2cccc(Cl)c2Cl)CC1)c1ccc2c(c1)Cc1ccccc1-2")
96.4
>>> assay_result("CCCCCC=CCC=CCC1OC1CC=CCCCC(=O)O (stereo not drawn) [8,9-Epoxyeicosatrienoic acid]")
97.7
>>> assay_result("CC(CN1CCC(Cc2ccccc2)CC1)C(O)c1ccc(O)cc1.Cl (stereo not drawn) [Ro 25-6981 hydrochloride]")
86.4
>>> assay_result("CC1C(=O)OC2C(O)C34C5CC(C(C)(C)C)C36C(OC(=O)C6O)OC4(C(=O)O5)C12O (stereo not drawn) [Ginkgolide B]")
101

Reported H1.0 immunofluorescence intensity ( Nn1nnc2ccccc21 [1-Aminobenzotriazole] ) = 92.8

The reported value for COCCOC(=O)C1=C(C)NC(C)=C(C(=O)OCC=Cc2ccccc2)C1c1cccc([N+](=O)[O-])c1 (stereo not drawn) [Cilnidipine] in terms of H1.0 immunofluorescence intensity is 90.2

Item: Cc1cn[nH]c1.Cl [4-Methylpyrazole hydrochloride] | H1.0 immunofluorescence intensity: 98.5

Form field H1.0 immunofluorescence intensity, entry O=C1C(=Cc2ccc(O)c(O)c2)Oc2cc(O)ccc21 [Sulfuretine] : 93.3

H1.0 immunofluorescence intensity reported for this compound CC(=O)NCCc1c[nH]c2ccc(O)cc12 [N-Acetyl-5-hydroxytryptamine] : 93.3

For COc1cc2c(cc1OC)C1C(C)c3ccc(OC)c(OC)c3CN1CC2 (stereo not drawn) [Corydaline] the compound record lists H1.0 immunofluorescence intensity as 94.4

Lab note: Cc1[nH]c(=O)c(C#N)cc1-c1ccncc1 [Milrinone] gave H1.0 immunofluorescence intensity of 92.3

Consider NCCCCCCCCCCN [1,10-Diaminodecane] . Its measured H1.0 immunofluorescence intensity is 89.4

Reported H1.0 immunofluorescence intensity ( C#CCN1C(C)=C(C(=O)OC)C(c2cccc([N+](=O)[O-])c2)C(C(=O)OCC)=C1C (stereo not drawn) ) = 89.2

For reference, reported H1.0 immunofluorescence intensity for CCCc1nn(C)c2c(=O)nc(-c3cc(S(=O)(=O)N4CCN(C)CC4)ccc3OCC)[nH]c12 [Sildenafil] stands at 95.1

Value of measured H1.0 immunofluorescence intensity for the entry COc1ccc(-c2cc(=S)ss2)cc1 [Anethole-trithione] : 96.7

For CCCCCCCCCCCCCCCC(=O)OCC=C(C)C=CC=C(C)C=CC1=C(C)CCCC1(C)C [Retinyl palmitate] the compound record lists H1.0 immunofluorescence intensity as 93.8

Memo: CCCCCCCCCCCCCC=CC(O)C(CO)NC(C)=O (stereo not drawn) [C2 Ceramide] , reported H1.0 immunofluorescence intensity: 94.8

====

Below, each entry is listed with its recorded H1.0 immunofluorescence intensity.
# Tested on: TDF;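 further: TDF is a line of transformed human dermal fibroblasts of mesenchymal origin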
# protocol_description: H1.0 immunofluorescence intensity relative to DMSO (% of DMSO); higher = stronger H1.0 induction, active = 120 or more
# measurement_setup: concentration: 10 µM; 24 h
Kindly provide the number alone.

For orientation, consider the following solved cases.
>>> assay_result("CCC1(C)CC(=O)NC1=O (stereo not drawn) [Ethosuximide]")
94.1
>>> assay_result("CC(C)Nc1cccnc1N1CCN(C(=O)c2cc3cc(NS(C)(=O)=O)ccc3[nH]2)CC1.CS(=O)(=O)O [Delavirdine mesylate]")
99.1
>>> assay_result("COC(=O)C1=C(C)NC(C)=C([N+](=O)[O-])C1c1ccccc1C(F)(F)F (racemic)")
92.2
>>> assay_result("NS(=O)(=O)c1cccc2c1c([N+](=O)[O-])cc1nc([O-])c([O-])nc12.[Na+].[Na+] [NBQX disodium]")
93.8
>>> assay_result("CC(C)Cc1ccc(C(C)C(=O)O)cc1 (racemic)")
95.4
>>> assay_result("Cl.O=C(O)C1=CCCN(CCON=C(c2ccccc2)c2ccccc2)C1 [NO-711 hydrochloride]")
94.2

Lookup result for O=C(CCNNC(=O)c1ccncc1)NCc1ccccc1 [Nialamide] ; measured H1.0 immunofluorescence intensity: 92.2

According to the records, this molecule C=C1C(=O)OC2C1CCC(C)=CCCC1(C)OC21 (stereo not drawn) [Parthenolide] displays H1.0 immunofluorescence intensity of 119

====

Listing: cell number of selected compounds
# System: HCC1569;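 further: TDF denotes transformed human dermal fibroblasts of mesenchymal origin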
# protocol_description: cell number relative to DMSO (% of DMSO); higher = more cells (less growth inhibition / toxicity)
# measurement_setup: concentration: 10 µM; 24 h
Reply: number alone, nothing else.

>>> assay_result("CC(C)Cc1ccc(C(C)C(=O)O)cc1 (racemic)")
103

Kindly note the recorded cell number for COc1cc2ncnc(N3CCN(C(=O)Nc4ccc(Oc5ccccc5)cc4)CC3)c2cc1OC , which is 72.2

Given item CN1C2CCC1CC(OC(c1ccccc1)c1ccccc1)C2.CS(=O)(=O)O (centres undefined) [Benztropine mesylate] , the value recorded as its cell number is 97.2

The value of cell number measured for the compound N#CC(=Cc1ccc(O)c(O)c1)C(=O)NCCc1ccccc1 turned out to be 84.3

====

# System: TDF;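 further: TDF is a line of transformed human dermal fibroblasts of mesenchymal origin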
# protocol_description: H1.0 immunofluorescence intensity relative to DMSO (% of DMSO); higher = stronger H1.0 induction, active = 120 or more
# measurement_setup: concentration: 10 µM; 24 h
Tag: YES if measured H1.0 immunofluorescence intensity is not below 100, NO if it is.

// query Has O=C(O)CN(CCOCCOCCN(CC(=O)O)CC(=O)O)CC(=O)O a recorded H1.0 immunofluorescence intensity greater than or equal to 100?
// result NO

// query Check this molecule for H1.0 immunofluorescence intensity at or above 100: CCCCCCCCCCC(=O)O [Undecanoic acid]
// result YES

// query Given the entry CS(=O)(=O)CCNCc1ccc(-c2ccc3ncnc(Nc4ccc(OCc5cccc(F)c5)c(Cl)c4)c3c2)o1 [Lapatinib] , answer whether its H1.0 immunofluorescence intensity meets or surpasses 100.
// result YES

// query Record COc1cc(C(=O)OC2CC(C)=CCCC(C)=CC(O)C2C(C)C)ccc1O (centres undefined) [Tschimganidin] ; criterion: H1.0 immunofluorescence intensity no lower than 100. Met?
// result NO

// query Does the molecule O=C1CSc2ccccc2N1Cc1cccc(C(F)(F)F)c1 [4-[3-(trifluoromethyl)benzyl]-2H-1,4-benzothiazin-3(4H)-one] have recorded H1.0 immunofluorescence intensity that is 100 or more?
// result NO

// query Has Cc1nc(N)sc1-c1ccnc(Nc2ccc(N3CCOCC3)cc2)n1 a recorded H1.0 immunofluorescence intensity greater than or equal to 100?
// result YES

// query Can CCc1nc(-c2cccc(C)c2)c(-c2ccnc(NC(=O)c3ccccc3)c2)s1 be said to have H1.0 immunofluorescence intensity at or above 100?
// result NO

// query In plain terms: is recorded H1.0 immunofluorescence intensity at least 100 for Nc1ncnc2n[nH]c(Nc3ccc(F)cc3)c12 ?
// result NO

// query # check: H1.0 immunofluorescence intensity of CN[C@H](CC(=O)O)C(=O)O [N-Methyl-D-aspartic acid] is greater than or equal to 100
// result NO

// query Test whether the molecule Cn1c(=O)c2[nH]c(-c3ccc(S(=O)(=O)O)cc3)nc2n(C)c1=O [8-(p-Sulfophenyl)theophylline] records H1.0 immunofluorescence intensity of 100 or higher.
// result NO

// query Quick check: does CC(C)(Sc1cc(C(C)(C)C)c(O)c(C(C)(C)C)c1)Sc1cc(C(C)(C)C)c(O)c(C(C)(C)C)c1 [Probucol] have H1.0 immunofluorescence intensity greater than or equal to 100?
// result NO

// query Hi team, for NCC(O)c1ccc(O)c(O)c1.O=C(O)C(O)C(O)C(=O)O (stereo not drawn) [Norepinephrine-(+)-tartrate L (-)] , is the recorded H1.0 immunofluorescence intensity at or above 100?
// result NO

// query Is H1.0 immunofluorescence intensity for Clc1ccc(C(Cn2ccnc2)OCc2csc3c(Cl)cccc23)c(Cl)c1 (centres undefined) [Sertaconazole] at or above 100?
// result NO

// query Check if H1.0 immunofluorescence intensity >= 100 (inclusive). Item: CCCCC(C)(O)CC=CC1C(O)CC(=O)C1CCCCCCC(=O)OC (centres undefined) [Misoprostol]
// result NO

====

# Tested on: TDF;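 further: TDF is a line of transformed human dermal fibroblasts of mesenchymal origin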
# protocol_description: H1.0 immunofluorescence intensity relative to DMSO (% of DMSO); higher = stronger H1.0 induction, active = 120 or more
# measurement_setup: concentration: 10 µM; 24 h
observed_property: H1.0 immunofluorescence intensity

>>> assay_result("Cl.O=c1n(CCCN2CCN(c3cccc(Cl)c3)CC2)nc2ccccn12 [Trazodone hydrochloride]")
"89.5 (inactive)"
>>> assay_result("COc1ccnc(CS(=O)c2nc3ccc(OC(F)F)cc3[nH]2)c1OC (centres undefined)")
"102 (inactive)"
>>> assay_result("COc1ccc(C2CC(c3ccccc3)=NN2c2ccc(S(N)(=O)=O)cc2)cc1 (centres undefined)")
"91.3 (inactive)"

Please turn your attention to the following entry.
get_value(item= Cc1ccc(NC(=O)CCCCCC(=O)Nc2ccccc2N)cc1 [N~1~-(2-aminophenyl)-N~7~-(4-methylphenyl)heptanediamide] , readout=H1.0 immunofluorescence intensity) returns 113 (inactive)

Source of measurements: the supplement of paper PMC7156485
